system: CCRF-CEM leukemia; assay: NCI tumour cell line growth inhibition, 48 h; in the data active means GI50 below about 0.43 µM; inactive means the rest
Form entry, call: pick from 1 (yes) (active), 0 (no) (inactive)

| Compound | Classification |
| --- | --- |
| O=C(/C=C/c1ccccc1)n1c(-c2ccc(Cl)cc2)nc2ccccc21 | 0 (no) |
| COc1ccc2nc3cc([N+](=O)[O-])ccc3c(NCCCN(C)C)c2c1 | 0 (no) |
| Cc1cc(N2CCSCC2)nc(NC2CCCC(Nc3ccnc4cc(Cl)ccc34)C2)n1 (stereo not drawn) | 0 (no) |
| COc1cccc(NC(=O)c2sc3nc4c(cc3c2N)C(=O)CCC4)c1 | 1 (yes) |
| O=C(OCc1ncc(-c2ccc(C(F)(F)F)cc2)c(NC2CCCCCC2)n1)c1c(F)c(F)c(F)c(F)c1F | 0 (no) |
| COc1ccc(OC)c2c1[nH]c(=O)c1c3ncccc3cn21 | 0 (no) |

INPUT: // param item: CCCC(CCC)C(=O)OCC1(CO)C/C(=C\c2ccc(F)cc2)C(=O)O1 (stereo not drawn) ; yields the recorded call
OUTPUT: 1 (yes)

INPUT: // param item: "O=C1/C(=C\c2ccccn2)c2ccccc2N1c1c(Cl)cccc1Cl" ; yields the recorded call
OUTPUT: 0 (no)

----------
tested on: HCT-15 colon; test: NCI tumour cell line growth inhibition, 48 h
Please go through the items and note down their TGI.
One number for each entry, in µM.

Solved cases (4 shown):
| Molecule | Value |
| --- | --- |
| Cc1c(C(=O)/C=C/c2ccccc2O)c(=O)n(-c2ccccc2)n1C | 60.5 |
| Cc1cc(C)c(Cn2cnc3c(Cl)ncnc32)c(C)c1CCl | 18.8 |
| FC(F)(F)C1(Br)C(c2ccccc2)=C1c1ccccc1 | 28 |
| Nc1ccc(C(=O)c2cn(CCN3CCOCC3)c3ccccc23)c2ccccc12 | 43.3 |

Now for the molecule whose TGI we want.
INPUT: Answer with the recorded TGI of CCCCCCCCCCCCCCCCCC(=O)OCC(COC(=O)CCCN)OC(=O)CCCN (stereo not drawn) only.
OUTPUT: 52.3

----------
test system: UACC-257 melanoma; assay: NCI tumour cell line growth inhibition, 48 h
Property measured: TGI

Solved cases (2 shown):
| Compound | TGI |
| --- | --- |
| N#C/C(=C1\SC(N=Nc2ccccc2)C(=O)N1c1ccccc1)c1nc2ccccc2[nH]1 (stereo not drawn) | > 100 µM |
| CCn1c(-c2cc3ccccc3cc2O)nn(C(=O)c2c(Cl)cccc2Cl)c1=S | > 50 µM |

Now for the compound whose TGI we want.
INPUT: Answer with the recorded TGI of C/C=C/C1OC(O)(C(C)C(O)[C@H](C)C2OC(=O)/C(OC)=C/C(C)=C/[C@@H](C)[C@@H](O)[C@@H](C)C(O)C(C)C/C(C)=C/C=C/C2OC)C[C@@H](OC2CC(O)C(OC(N)=O)C(C)O2)C1C (stereo partly drawn) only.
OUTPUT: < 0.01 µM

----------
tested on: MOLT-4 leukemia; test: NCI tumour cell line growth inhibition, 48 h
Property measured: TGI

| Molecule | Measured on | Property measured | Value |
| --- | --- | --- | --- |
| COc1ccc(C(=O)c2cc3c(N)c(C(=O)Nc4ccc(C)cc4)sc3nc2C)cc1 | MOLT-4 leukemia | TGI | > 100 µM |
| O=C(N/N=C(/COc1ccc([N+](=O)[O-])cc1)N=Cc1ccncc1)c1ccncc1 | MOLT-4 leukemia | TGI | > 100 µM |
| Clc1ccc(C2Nc3ccccc3C3=NCCN32)cc1 (stereo not given) | MOLT-4 leukemia | TGI | > 100 µM |
| CC[N+]1(C)CCC(O)(c2ccc(OC)cc2)C(C(=O)c2ccc(OC)cc2)C1 (stereo not given) | MOLT-4 leukemia | TGI | > 21.1 µM |

INPUT: Answer with the recorded TGI of O=C(O)CC1NCc2cc3ccccc3nc21 (stereo not given) only.
OUTPUT: > 100 µM

----------
Please go through the items and note down their TGI.
tested on: HT29 colon; test: NCI tumour cell line growth inhibition, 48 h

Solved cases (5 shown):
| Molecule | TGI |
| --- | --- |
| O=C(O)CCC(=O)c1ccc(Cl)cc1 | > 100 µM |
| Clc1ccc(C(SCc2ccccc2)SCc2ccccc2)cc1 | > 10 µM |
| c1c[nH]c(C23C4C5C6C4C2C6C53)n1 (centres undefined) | > 100 µM |
| O=c1c2cccc3cccc(c4n1CCN=4)c32 | > 100 µM |
| CC/C(CC(=O)CCC(=O)Nc1ccccc1[N+](=O)[O-])=N/NC(=O)C[n+]1ccccc1 | > 100 µM |

Hey, can you go through the list below and give me TGI for every item?
1. CC1=NN(C(=O)c2ccc([N+](=O)[O-])cc2)C(=O)C1N=Nc1ccccc1C(=O)O (centres undefined)
2. C=C[C@@]1(O)CCCC2=C(C(=O)OCC)CC[C@]21C
3. COc1ccc(C2SCC(=O)N2NC(=O)c2ccc(NC(C)=O)cc2)cc1 (centres undefined)
4. O=C(Cc1ccccc1)Nn1c(-c2ccccc2)nc2ccccc2c1=O
5. Cc1ccc(/C(O)=C/c2nc3ccccc3s/c2=N/CS(=O)(=O)c2ccc(C)cc2)cc1

OUTPUT:
> 100 µM
> 100 µM
> 100 µM
> 100 µM
> 10 µM

Hey, can you go through the list below and give me TGI for every item?
1. Cc1ccc2oc(=O)c(C(=O)Nc3nc(C45CC6CC(CC(C6)C4)C5)cs3)cc2c1
2. O=C(O)CC1NCc2cc3ccccc3nc21 (centres undefined)
3. COc1ccc(/C=N\Nc2ccc([N+](=O)[O-])cn2)cc1OC
4. N#CC1=C(N)NC(N2CCOCC2)=NC12Nc1ccccc1N2
5. CN(/N=C/c1ccnc2ccccc12)c1ccc(Cl)cc1[N+](=O)[O-]
6. CCOC(=O)/C(C#N)=C/c1ccnc2ccccc12
7. CC(=O)N=C1N(/C=C2\C(=O)Oc3ccccc3C2=O)C(=O)/C(=C/c2ccc(NC(C)=O)cc2)N1C

OUTPUT:
["> 100 µM", "> 100 µM", "> 100 µM", "> 100 µM", "> 100 µM", "> 100 µM", "> 100 µM"]

Hey, can you go through the list below and give me TGI for every item?
1. Cc1c2c(OCCN3CCCCC3)nn(C)c(=O)c2c(C)n1-c1ccccc1
2. CCOP(=O)(OCC)C(C#N)Cc1ccco1 (centres undefined)
3. O=[N+]([O-])c1cc2c(cc1/C=N/n1c(CO)nc3ccccc31)OCO2
4. CC(C)C(N)=O
5. CC(=O)OC1COC(Nc2nc(NCc3ccccc3)n(C)c(=O)c2N=O)C(OC(C)=O)C1OC(C)=O (centres undefined)
6. c1csc(C[N+]23CN4CN(CN(C4)C2)C3)c1
7. COC(=O)C1[C@H](c2cc(OC)c(OC)c(OC)c2)OC(=O)C1(C(=O)OC)C(=O)c1ccc2c(c1)OCO2 (some centres undefined)

OUTPUT:
["> 100 µM", "> 10 µM", "> 100 µM", "> 5000 µM", "> 10 µM", "> 100 µM", "> 100 µM"]

----------
Please go through the items and note down their TGI.
system: HCT-116 colon; experiment: NCI tumour cell line growth inhibition, 48 h

Solved cases (5 shown):
| Compound | TGI |
| --- | --- |
| CCc1cccc(CC)c1NC(=O)C1=C(C)NC(C)=C(C(=O)Nc2c(CC)cccc2CC)C1c1ccc([N+](=O)[O-])cc1 | 46.4 µM |
| Cc1cc(C)c(NC(=S)NC(=O)c2ccccc2)cc1C | > 100 µM |
| Cc1csc(/N=C\c2c(O)c3ccccc3oc2=O)n1 | > 100 µM |
| OCC(O)c1nc2ccc3[nH]ncc3c2c2c1CCCC2 (stereo not drawn) | > 50 µM |
| COc1cc(-c2nc(-c3nc4ccccc4[nH]3)cc3c2[nH]c2ccccc23)cc(OC)c1OC | > 100 µM |

Hey, can you go through the list below and give me TGI for every item?
1. Cc1cn([C@@H]2O[C@H](CO[Si](C)(C)C(C)(C)C)[C@]3(O[C@H]3C(=O)NN)[C@H]2O[Si](C)(C)C(C)(C)C)c(=O)[nH]c1=O
2. CCOP(=O)(OCC)C(C#N)Cc1ccco1 (stereo not drawn)
3. Cc1c2c(OCCN3CCCCC3)nn(C)c(=O)c2c(C)n1-c1ccccc1
4. CCOC(=O)CC1C(COC(=O)NC)OC(n2cnc3c(NC(=O)Nc4ccccc4)ncnc32)C1O[Si](C)(C)C(C)(C)C (stereo not drawn)
5. O=C(O)C(Cl)(c1ccccc1)c1ccccc1
6. CN1C(=O)N[C@H]2[C@@H]3NC(=O)c4ccc(Br)n4[C@@H]3C[C@]21O

OUTPUT:
1. 13.3 µM
2. > 10 µM
3. > 100 µM
4. 5.38 µM
5. > 100 µM
6. 2.39 µM

Hey, can you go through the list below and give me TGI for every item?
1. Clc1ccc(C(SCc2ccccc2)SCc2ccccc2)cc1
2. CCN(CC)CCNC(=O)c1cn2c(ccc3sc4ccccc4c(=O)c32)n1

OUTPUT:
> 10 µM
20.7 µM
